target.of.assay: T1, 4H918-bN
T1 chain: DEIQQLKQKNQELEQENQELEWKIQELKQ
experiment: two-hybrid library CCNG1;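 note: natural log of median RNA to DNA barcode read ratio; higher means stronger binding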
metric.name: interaction score

# binder, interaction score
rows = [
    ("DEIQQLEQKIQELKQENQELEWEIQELKQ [4H338-bN]", -0.295),
    ("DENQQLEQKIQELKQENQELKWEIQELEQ [4H1369-bN]", -0.868),
    ("DKNQQLKQKIQELKQENQELEWKIQELKQ [4H3926-bN]", -2.11),
    ("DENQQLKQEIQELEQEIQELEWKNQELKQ [4H1544-bN]", -0.127),
    ("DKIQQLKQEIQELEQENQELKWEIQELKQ [4H2586-bN]", -1.12),
    ("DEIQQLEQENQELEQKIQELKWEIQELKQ [4H170-bN]", -0.811),
]

(P) DEIQQLKQKIQELKQENQELEWKNQELEQ [4H855-bN]
(Q) DEIQQLKQKIQELEQENQELKWKIQELEQ [4H797-bN]
(R) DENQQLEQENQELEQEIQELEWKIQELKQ [4H1158-bN]
(S) DEIAQLEQKIAELKQENAELEWKIAQLKQ [4H342-bA]
Enquiry: Order the items by recorded interaction score; the first position goes to the largest value. Use the labels to give the ranking in the order requested.
Return: Q, S, P, R

(a) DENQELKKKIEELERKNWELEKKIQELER [4H1845-bH]
(b) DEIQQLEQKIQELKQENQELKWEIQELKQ [4H346-bN]
(c) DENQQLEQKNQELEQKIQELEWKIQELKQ [4H1446-bN]
Enquiry: Please order the records by their reported interaction score, lowest number first. State the ranking by listing the labels in the requested order.
Return: a, b, c
(a: -1.11, b: -0.654, c: 0.759)
